- Assay target: TetR-Q38A (UniProt P04483 1-187+P0ACT4:188-208, Q38A;C68S;C88N;C121T;C144S;internal_change)
- Experiment summary: ITC; n=1.10; ITC: 20 mM potassium phosphate pH 7.4, 50 mM NaCl, 25 C; EMSA: 50 mM Tris-HCl pH 8.0, 10 mM MgCl2, 25 mM NaCl, 25 ug/ml yeast tRNA, room temperature; SEC buffer not given (preparative complex: 20 mM Tris-HCl pH 8.0, 150 mM NaCl, 5 mM MgCl2)
- Recorded conditions: protein: recombinant, chain copies: 2, label: 5'-32P in EMSA, none in ITC, crystal, hairpin, L-shaped, 43 nt, stems P1 and P2
Measured endpoint: Kd (nM)
Give bare numbers, in nM.

Ask | Suppose we examine the binder GGCCGGAGAAUGUUAUGGCGCGAAAGCGCAGAGAAAACCGGUC (structured_RNA) [TetR-binding aptamer K1] ; what Kd value has been reported?
Reply | 26.2

Data credit: paper PMC7102968
